Source: a melting point compilation (Tetko et al.)

quantity: melting point

Exercise: Which measured melting point value corresponds to `Cc1cccn2cc(-c3ccc(N)cc3)nc12` ?
Solution: 161 to 163 °C

Exercise: Which measured melting point value corresponds to NC(=O)C1CCCCN1C(=O)CCl (centres undefined) ?
Solution: 149 to 151 °C

Exercise: Which measured melting point value corresponds to CC(C)(C)C(=O)N1CCCC1C(=O)O (centres undefined) ?
Solution: 136 to 138 °C

Exercise: Which measured melting point value corresponds to `CNC(=O)c1cccc(C(=O)O)c1` ?
Solution: 232 to 234 °C

Exercise: Which measured melting point value corresponds to `O=c1[nH]cnc2c1CCCN2` ?
Solution: 258 to 260 °C

Exercise: Which measured melting point value corresponds to `Cc1c(C(=O)O)nnn1-c1cccc([N+](=O)[O-])c1` ?
Solution: 169 to 171 °C

Exercise: Which measured melting point value corresponds to `O=C(O)c1cccnc1SCC1CCCCC1` ?
Solution: 145 to 147 °C

Exercise: Which measured melting point value corresponds to `Nn1c(S)nnc1-c1ccccc1` ?
Solution: 193 to 195 °C

Exercise: Which measured melting point value corresponds to `Nc1ccc2nc(Cc3ccccc3)oc2c1` ?
Solution: 104 to 106 °C

Exercise: Which measured melting point value corresponds to `COc1ccccc1S(=O)(=O)Cl` ?
Solution: 115 to 119 °C

Exercise: Which measured melting point value corresponds to `O=S(=O)(Cl)c1cc2c(cc1Cl)OCCCO2` ?
Solution: 92 to 94 °C

Exercise: Which measured melting point value corresponds to `O=C(O)c1ccon1` ?
Solution: 143 to 145 °C

Exercise: Which measured melting point value corresponds to `O=Cc1cnc(-c2ccccc2)s1` ?
Solution: 87 to 89 °C

Exercise: Which measured melting point value corresponds to `Cc1cc(C)c2c(N)nsc2n1` ?
Solution: 180 to 182 °C

====

quantity: melting point

Exercise: Which measured melting point value corresponds to `Nc1ccccc1N1CCc2ccccc2C1` ?
Solution: 114 to 116 °C

Exercise: Which measured melting point value corresponds to `O=C(O)c1cc(S(=O)(=O)Cl)c(F)cc1F` ?
Solution: 129 to 131 °C

Exercise: Which measured melting point value corresponds to `Cc1cnc2c(Cl)nccc2n1` ?
Solution: 139 to 141 °C

Exercise: Which measured melting point value corresponds to `Nc1cccc(CS(=O)(=O)Cc2ccccc2)c1` ?
Solution: 120 to 122 °C

Exercise: Which measured melting point value corresponds to `Sc1nnc(-c2ccco2)n1-c1ccccc1` ?
Solution: 121 to 123 °C

Exercise: Which measured melting point value corresponds to `CCNc1ccc(S(=O)(=O)C(F)(F)F)cc1N` ?
Solution: 149 to 151 °C

Exercise: Which measured melting point value corresponds to `CC(=O)Nc1ccc(C(N)=S)cc1` ?
Solution: 239 to 241 °C

Exercise: Which measured melting point value corresponds to `CC(C)(C)c1ncsc1C(=O)O` ?
Solution: 185 to 187 °C

Exercise: Which measured melting point value corresponds to `Cc1cccc2cc(C(=O)O)[nH]c12` ?
Solution: 169 to 175 °C

Exercise: Which measured melting point value corresponds to `O=C(O)c1cc(S(=O)(=O)N2CCOCC2)ccc1N1CCCCC1` ?
Solution: 179 to 181 °C

Exercise: Which measured melting point value corresponds to `Cc1cc(C)c(S(N)(=O)=O)cc1C` ?
Solution: 179 to 181 °C

Exercise: Which measured melting point value corresponds to `COc1ccc(C=O)cc1C#N` ?
Solution: 119 to 121 °C

Exercise: Which measured melting point value corresponds to `CNc1cccnc1N1CCCC1` ?
Solution: 105 to 107 °C

Exercise: Which measured melting point value corresponds to `COc1cc(C=O)ccc1OCc1c(C)noc1C` ?
Solution: 111 to 115 °C

Exercise: Which measured melting point value corresponds to `O=C(O)c1ccc(CS(=O)(=O)C(F)F)cc1` ?
Solution: 218 to 220 °C

Exercise: Which measured melting point value corresponds to `Nc1cc(Cl)ncn1` ?
Solution: 196 to 198 °C

Exercise: Which measured melting point value corresponds to `C[C@H](N)C(N)=O` ?
Solution: 67 to 69 °C

Exercise: Which measured melting point value corresponds to `O=C(O)CCCCCCNC(=O)OCc1ccccc1` ?
Solution: 89 to 91 °C

Exercise: Which measured melting point value corresponds to `COCCNC(=O)C1CCNCC1` ?
Solution: 158 to 160 °C

Exercise: Which measured melting point value corresponds to `Cc1nc2ccccc2nc1CCl` ?
Solution: 121 to 123 °C

Exercise: Which measured melting point value corresponds to `Nc1nnc(C2CC2)o1` ?
Solution: 170 to 172 °C

Exercise: Which measured melting point value corresponds to `Cc1nnc(NCC2CC2)c2ccccc12` ?
Solution: 89 to 91 °C

Exercise: Which measured melting point value corresponds to `COc1ccc(CN2C(=O)c3ccccc3C2=O)cc1C(=O)O` ?
Solution: 143 to 145 °C

Exercise: Which measured melting point value corresponds to `CC(C)c1ccc2c(c1)[C@@H](O)CCC2` ?
Solution: 89 to 91 °C

Exercise: Which measured melting point value corresponds to `NS(=O)(=O)C=Cc1cccc(Br)c1` ?
Solution: 153 to 155 °C

Exercise: Which measured melting point value corresponds to `CCOc1ccc(S(N)(=O)=O)cc1` ?
Solution: 152 to 154 °C

Exercise: Which measured melting point value corresponds to `NC(=O)NC1CC1` ?
Solution: 114 to 116 °C

Exercise: Which measured melting point value corresponds to O=C(CCl)N1CCOC2CCCCC21 (centres undefined) ?
Solution: 67 to 69 °C

Exercise: Which measured melting point value corresponds to `Nc1ccccc1C(=O)Nc1ccncc1` ?
Solution: 144 to 146 °C
